MEASUREMENT TARGET: HLA-A2 molecule (Homo sapiens, UniProt P04439, D140Y/D185E/D98H/E176V/E277Q/G131W/G231S/I119V/I121R/I166T/I218V/L300P/L318F/N151K/N90K/P208A/P217A/Q86G/Q94H/R138H/R169H/T345S)
Construct: The T2 cell line is deficient for TAP1 and TAP2 transporter proteins and expresses low levels of HLA-A2; endogenous in cells; host or cells: T2 cell line (TAP1/TAP2-deficient)
TEST PROTOCOL: T2 binding assay (HLA-A2 up-regulation on TAP-deficient T2 cells)
COND: peptide concentration that increases HLA-A2.1 expression by 50% over no peptide; wild-type peptides, Table 1 / FIG. 1
RECORDED ENDPOINT: FI0.5

GLTPLLLGV [POTE 272-280, unmodified 9-mer peptide, residues 272-280 of human POTE] :: ~0.9 µM
KILEEIESV [POTE 553-561, unmodified 9-mer peptide, residues 553-561 of human POTE] :: ~5.6 µM
LLLEQNVDV [POTE 323-331, unmodified 9-mer peptide, residues 323-331 of human POTE] :: ~0.8 µM
KLMAKALLL [POTE 252-260, unmodified 9-mer peptide, residues 252-260 of human POTE] :: ~1.6 µM

* * *

MEASUREMENT TARGET: HLA-A2 molecule (Homo sapiens, UniProt P04439, D140Y/D185E/D98H/E176V/E277Q/G131W/G231S/I119V/I121R/I166T/I218V/L300P/L318F/N151K/N90K/P208A/P217A/Q86G/Q94H/R138H/R169H/T345S)
Construct: The T2 cell line is deficient for TAP1 and TAP2 transporter proteins and expresses low levels of HLA-A2; endogenous in cells; host or cells: T2 cell line (TAP1/TAP2-deficient)
TEST PROTOCOL: T2 binding assay (HLA-A2 up-regulation on TAP-deficient T2 cells)
COND: peptide concentration that increases HLA-A2.1 expression by 50% over no peptide; substituted peptides and their wild types, Table 2 / FIGS. 2A-2C
Consider the following sequences and their measured FI0.5 readings.
RECORDED ENDPOINT: FI0.5 (µM)

KIFEEIESV [POTE 553-3F, modified POTE 553 peptide, phenylalanine at position 3] :: 0.3
LLLEQNADV [POTE 323-7A, modified POTE 323 peptide, alanine at position 7] :: 2.78
KILEEIASV [POTE-553-7A, modified POTE 553 peptide, alanine at position 7] :: 0.2
KLFAKALLL [POTE 252-3F, modified POTE 252 peptide, phenylalanine at position 3] :: 1.5
KLMAKAALL [POTE 252-7A, modified POTE 252 peptide, alanine at position 7] :: 4
KLAAKALLL [POTE 252-3A, modified POTE 252 peptide, alanine at position 3] :: 16.9

* * *

Consider the following sequences and their measured FI0.5 readings.
MEASUREMENT TARGET: HLA-A2 molecule (Homo sapiens, UniProt P04439, D140Y/D185E/D98H/E176V/E277Q/G131W/G231S/I119V/I121R/I166T/I218V/L300P/L318F/N151K/N90K/P208A/P217A/Q86G/Q94H/R138H/R169H/T345S)
Construct: The T2 cell line is deficient for TAP1 and TAP2 transporter proteins and expresses low levels of HLA-A2; endogenous in cells; host or cells: T2 cell line (TAP1/TAP2-deficient)
TEST PROTOCOL: T2 binding assay (HLA-A2 up-regulation on TAP-deficient T2 cells)
COND: peptide concentration that increases HLA-A2.1 expression by 50% over no peptide; substituted peptides and their wild types, Table 2 / FIGS. 2A-2C
RECORDED ENDPOINT: FI0.5 (µM)

YLMAKALLL [POTE 252-1Y, modified POTE 252 peptide, tyrosine at position 1] :: 0.9
KILEEIESV [POTE 553-561, unmodified 9-mer peptide, residues 553-561 of human POTE] :: 2.6
KLMAKALLL [POTE 252-260, unmodified 9-mer peptide, residues 252-260 of human POTE] :: 1.5
LLLEQNVDV [POTE 323-331, unmodified 9-mer peptide, residues 323-331 of human POTE] :: 0.3
YLLEQNVDV [POTE 323-1Y, modified POTE 323 peptide, tyrosine at position 1] :: 0.25
KLLEEIESV [POTE 553-2L, modified POTE 553 peptide, leucine at position 2] :: 0.1
LLAEQNVDV [POTE 323-3A, modified POTE 323 peptide, alanine at position 3] :: 0.4

Data origin: patent US9394352B2
